assay-target: Human (6-His)Sortilin (Homo sapiens, UniProt Q99523)
Construct: purchased RnD Systems
Sequence (Q99523 78-755 limits assumed): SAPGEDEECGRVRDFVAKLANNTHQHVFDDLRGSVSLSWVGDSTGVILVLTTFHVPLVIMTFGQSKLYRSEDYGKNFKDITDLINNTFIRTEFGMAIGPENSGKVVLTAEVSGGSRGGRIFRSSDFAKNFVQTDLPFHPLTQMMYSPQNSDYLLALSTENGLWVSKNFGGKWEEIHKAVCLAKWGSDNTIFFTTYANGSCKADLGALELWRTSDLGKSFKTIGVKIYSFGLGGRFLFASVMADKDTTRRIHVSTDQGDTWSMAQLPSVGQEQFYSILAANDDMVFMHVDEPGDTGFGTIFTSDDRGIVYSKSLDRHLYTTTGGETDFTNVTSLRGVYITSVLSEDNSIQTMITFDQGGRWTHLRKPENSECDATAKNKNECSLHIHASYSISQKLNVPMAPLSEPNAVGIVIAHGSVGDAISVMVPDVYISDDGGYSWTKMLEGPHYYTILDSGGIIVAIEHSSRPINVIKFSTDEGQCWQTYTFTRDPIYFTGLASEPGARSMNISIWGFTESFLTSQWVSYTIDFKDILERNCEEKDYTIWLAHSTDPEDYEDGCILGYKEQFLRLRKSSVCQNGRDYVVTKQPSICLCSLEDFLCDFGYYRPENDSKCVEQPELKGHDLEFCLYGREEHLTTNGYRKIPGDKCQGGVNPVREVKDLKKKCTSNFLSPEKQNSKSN
assay-details: Human Sortilin GCI (Grating-Coupled Interferometry) binding assay
particulars: Creoptix WAVE-RAPID, single concentration (usually 1 µM, 10 µM or 100 µM), immobilised Human (6-His)Sortilin, 1:1 kinetic binding model
Kindly apply the following: TRUE if Kd is less than 4 µM, FALSE in every other case.

Previously resolved entries follow.
                                   compound  assigned_class
0  CC(C)(C)CC(Nc1cccnc1)c1nn[nH]n1 (racemic) [Example 62]           FALSE
1  Cn1ccc2cc(NC(CC(C)(C)C)c3nn[nH]n3)cnc21 (racemic) [Example 52]            TRUE
2  CC(C)CCC(Nc1ncccn1)c1nn[nH]n1 (racemic) [Example 57]           FALSE

# input Is it true that Kd reported for CC(C)(C)CC(Nc1ncccn1)c1nn[nH]n1 (racemic) [Example 45] is less than 4 µM?
# output FALSE

# input Is it true that Kd reported for CC(C)(C)CCC(Nc1ncnc2cc(Br)ccc12)c1nn[nH]n1 (racemic) [Example 90] is less than 4 µM?
# output TRUE

# input Is it true that Kd reported for CC(C)CC(Nc1ncnc2ccccc12)c1nn[nH]n1 (racemic) [Example 103] is less than 4 µM?
# output FALSE

# input Is it true that Kd reported for Cc1ccc2ncnc(NC(CCC(C)C)c3nn[nH]n3)c2c1 (racemic) [Example 80] is less than 4 µM?
# output TRUE

# input Is it true that Kd reported for CC(C)(C)CCC(Nc1ncnc2cnccc12)c1nn[nH]n1 (racemic) [Example 88] is less than 4 µM?
# output TRUE

# input Is it true that Kd reported for CC(C)(C)CCC(Nc1ncnc2ccc(C(F)(F)F)cc12)c1nn[nH]n1 (racemic) [Example 86] is less than 4 µM?
# output TRUE

# input Is it true that Kd reported for Cc1ccc2ncnc(NC(CCC(C)(C)C)c3nn[nH]n3)c2c1 (racemic) [Example 83] is less than 4 µM?
# output TRUE

# input Is it true that Kd reported for CC(C)(C)CC(Nc1ncnc2ccccc12)c1nn[nH]n1 (racemic) [Example 77] is less than 4 µM?
# output FALSE

# input Is it true that Kd reported for CC(C)CC(Nc1cnc2ccccc2c1)c1nn[nH]n1 (racemic) [Example 56] is less than 4 µM?
# output FALSE

Every entry's value here was drawn from patent EP4428121A1.
